# Tested on: A549
# assay_details: Cytotoxicity against human A549 cells
# Format: functional, cell-based
Active and inactive are the calls of the source. No cut-off for these calls is given here.
assay_metric: Activity

query: Would you mind telling me what Activity value was observed for `C=CC[C@@H]1C[C@]2(O)C[C@H](C(C)(C)O)OC2=CC1=O` ?
result: inactive

query: Thanks! And `C=CC[C@@]12C=C(C[C@H](O)C(C)(C)O)C(=O)C=C1OCO2` ?
result: inactive

query: Same read-out for `C=CC[C@H]1C[C@]2(O)C[C@H](C(C)(C)O)OC2=CC1=O` ?
result: inactive

query: Now consider `CO[C@]12OC[C@@]3(C)[C@@]4(O)CC[C@@H](COC(=O)c5ccccc5)[C@]4(C[C@@H](O1)[C@@]3(O)CO)[C@H]2O` .
result: inactive

query: And what about the compound `C=CCC1=C[C@]2(O)C[C@@H](O)C(C)(C)[C@H](C1=O)C2=O` ?
result: inactive

query: Now this one: `C[C@@H]1CC[C@@]2(O)[C@]13C[C@@H](OC(=O)[C@@H]3O)[C@@]1(O)C(=O)OC[C@@]21C`
result: inactive

query: Now this one: `C=CC[C@]1(C[C@H](O)C(C)(C)O)C=C2OCOC2=CC1=O`
result: inactive

Now look at this one.
query: Need Activity, item `C=CCC1=C[C@]2(O)C[C@H](C(C)(C)O)OC2=CC1=O`
result: inactive
